Overview of recorded Ratio Ki for various compounds
Molecular target: Vitamin D3 receptor (Rattus norvegicus)
Sequence (whole entry): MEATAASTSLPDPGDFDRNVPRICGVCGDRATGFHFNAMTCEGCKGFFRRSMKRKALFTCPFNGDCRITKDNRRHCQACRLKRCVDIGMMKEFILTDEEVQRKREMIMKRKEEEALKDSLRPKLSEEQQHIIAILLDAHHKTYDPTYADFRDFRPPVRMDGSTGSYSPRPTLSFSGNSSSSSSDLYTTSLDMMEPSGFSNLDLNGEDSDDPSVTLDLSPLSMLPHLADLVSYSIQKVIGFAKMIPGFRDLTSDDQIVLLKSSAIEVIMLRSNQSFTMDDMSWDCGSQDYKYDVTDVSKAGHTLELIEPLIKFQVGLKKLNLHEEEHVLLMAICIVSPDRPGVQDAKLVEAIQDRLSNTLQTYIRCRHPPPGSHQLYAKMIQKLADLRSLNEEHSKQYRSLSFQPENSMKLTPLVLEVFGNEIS
Experiment: Ratio of 1alpha,25-(OH)2D3 Ki to compound Ki for full-length recombinant rat vitamin D receptor after 30 mins by liquid scintillation counting

| compound | Ratio Ki |
| --- | --- |
| C=C1CC/C(=C/C=C2\CCC[C@]3(C)[C@@H]([C@H](C)CCCC(C)(C)O)CC[C@@H]23)C[C@H]1O | 0.2 |
| C=C1[C@H](O)CC(=C/C=C2\CCC[C@]3(C)[C@@H]([C@@H](C)CCCC(C)(C)O)CC[C@@H]23)C[C@H]1O [DP001] | 1 |
| C=C1CC[C@H](O)C/C1=C/C=C1\CCC[C@]2(C)[C@@H]([C@H](C)CCCC(C)(C)O)CC[C@@H]12 [CALCIFEDIOL ANHYDROUS] | 0.01 |
